Every entry's value here was drawn from ChEMBL document CHEMBL1145127.

- Organism: Rattus norvegicus
- Assay Method Text: Effective concentration against rat aortic smooth muscle cell
- Type: functional
- Study Conditions: Rattus norvegicus
pEC50: −log10 of the molar value.
Readout Kind: pEC50

Check out these entries, answers already filled in.
• O=C1NCC(=O)N2[C@H](c3ccc4c(c3)OCO4)c3[nH]c4ccccc4c3C[C@H]12 (stereo in doubt; 16) [NORTADALAFIL] = 6.52
• CCCCN1C(=O)C2Cc3c([nH]c4ccccc34)C(c3ccc(OC)cc3)N2C1=O (stereo unspecified) = 6.00
• CCCCN1CC(=O)N2C(c3ccc(C)cc3)c3[nH]c4ccccc4c3C[C@@H]2C1=O (stereo partly specified) = 6.46

[1] O=C1[C@H]2Cc3c([nH]c4ccccc34)[C@@H](c3ccc4c(c3)OCO4)N2C(=O)CN1Cc1ccccc1
[2] O=C1[C@H]2Cc3c([nH]c4ccccc34)[C@@H](c3ccc4c(c3)OCO4)N2C(=O)CN1C1CCCCC1
Choose between 1 and 2 : whose measured pEC50 value is numerically larger? Your answer should be the label of the entry you select.
2
(2: 6.52, 1: 6.10)

====

- Assay Method Text: Oral bioavailability in rat was determined
- Type: ADME, organism-based
- Study Conditions: in vivo
Readout Kind: bioavailability (%)
Write the value in % as a bare number.

Identify measured bioavailability corresponding to CN1CC(=O)N2[C@H](c3ccc4c(c3)OCO4)c3[nH]c4ccccc4c3C[C@@H]2C1=O (stereo in doubt; 12a)
63

====

- Assay Method Text: The total clearance time in plasma in rat was determined
- Type: ADME, organism-based
Readout Kind: clearance (mL/min/kg)
Write the value in mL/min/kg as a bare number.

Identify measured clearance corresponding to CN1CC(=O)N2[C@H](c3ccc4c(c3)OCO4)c3[nH]c4ccccc4c3C[C@@H]2C1=O (stereo in doubt; 12a)
5.1

====

Assay system cGMP-specific 3',5'-cyclic phosphodiesterase (Bos taurus); read-out recorded as IC50.
Readout Kind: IC50 (nM)

[I] CCCCN1CC(=O)N2[C@H](c3ccc4c(c3)OCO4)c3[nH]c4ccccc4c3C[C@@H]2C1=O (stereo in doubt)
[II] CCCCN1CC(=O)N2C(c3ccc(C#N)cc3)c3[nH]c4ccccc4c3C[C@@H]2C1=O (some centres undefined)
[III] COc1ccc(C2c3[nH]c4ccccc4c3C[C@@H]3C(=O)N(Cc4ccccc4)C(=O)N23)cc1 (some centres undefined)
Lab note: order the above by reported IC50, lowest first, highest last. I would appreciate it if you listed the labels in the requested order.
I, III, II

====

- Target Entity: cGMP-dependent 3',5'-cyclic phosphodiesterase (Homo sapiens, UniProt O00408)
- Sequence (O00408 whole entry): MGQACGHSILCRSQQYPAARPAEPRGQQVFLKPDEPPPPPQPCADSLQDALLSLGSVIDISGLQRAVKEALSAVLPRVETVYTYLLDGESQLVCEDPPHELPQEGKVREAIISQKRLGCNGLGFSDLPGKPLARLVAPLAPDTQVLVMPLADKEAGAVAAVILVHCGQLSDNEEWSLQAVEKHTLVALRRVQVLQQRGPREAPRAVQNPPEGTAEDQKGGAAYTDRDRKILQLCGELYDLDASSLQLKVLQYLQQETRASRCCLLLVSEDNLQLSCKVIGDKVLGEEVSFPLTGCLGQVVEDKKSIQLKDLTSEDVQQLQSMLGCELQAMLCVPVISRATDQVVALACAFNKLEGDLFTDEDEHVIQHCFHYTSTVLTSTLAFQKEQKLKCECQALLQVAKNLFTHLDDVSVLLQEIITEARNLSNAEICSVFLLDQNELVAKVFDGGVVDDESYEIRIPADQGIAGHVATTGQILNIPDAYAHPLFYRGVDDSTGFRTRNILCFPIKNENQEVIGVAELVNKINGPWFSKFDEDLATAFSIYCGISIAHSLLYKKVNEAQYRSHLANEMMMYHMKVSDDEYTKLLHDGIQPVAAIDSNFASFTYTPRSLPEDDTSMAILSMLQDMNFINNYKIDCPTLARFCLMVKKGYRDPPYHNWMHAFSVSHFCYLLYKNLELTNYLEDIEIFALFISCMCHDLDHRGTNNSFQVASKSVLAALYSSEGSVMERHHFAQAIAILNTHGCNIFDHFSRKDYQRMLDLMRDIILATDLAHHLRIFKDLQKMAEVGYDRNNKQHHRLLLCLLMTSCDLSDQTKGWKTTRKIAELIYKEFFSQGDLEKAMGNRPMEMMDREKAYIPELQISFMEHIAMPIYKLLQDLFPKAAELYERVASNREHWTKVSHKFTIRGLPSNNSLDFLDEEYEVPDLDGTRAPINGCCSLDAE
- Assay Method Text: Inhibition of Human recombinant PDE2 (Phosphodiesterase 2)
pIC50: −log10 of the molar value.
Readout Kind: pIC50

Identify measured pIC50 corresponding to CN1CC(=O)N2[C@H](c3ccc4c(c3)OCO4)c3[nH]c4ccccc4c3C[C@@H]2C1=O (stereo in doubt; 12a)
< 5.00

====

- Organism: Rattus norvegicus
- Assay Method Text: Effective concentration against rat aortic smooth muscle cell
- Type: functional
Readout Kind: EC50 (nM)

* O=C1NCC(=O)N2[C@H](c3ccc4c(c3)OCO4)c3[nH]c4ccccc4c3C[C@H]12 (stereo in doubt) | 600
* CC(C)N1CC(=O)N2[C@H](c3ccc4c(c3)OCO4)c3[nH]c4ccccc4c3C[C@@H]2C1=O (stereo in doubt; 14) | 150
* CCCCN1CC(=O)N2[C@H](c3ccc4c(c3)OCO4)c3[nH]c4ccccc4c3C[C@@H]2C1=O (stereo in doubt) | 600
* CN1CC(=O)N2[C@H](c3ccc4c(c3)OCO4)c3[nH]c4ccccc4c3C[C@@H]2C1=O (stereo in doubt) | 500

[I] CC(C)N1CC(=O)N2[C@H](c3ccc4c(c3)OCO4)c3[nH]c4ccccc4c3C[C@@H]2C1=O (stereo in doubt)
[II] CN1CC(=O)N2[C@H](c3ccc4c(c3)OCO4)c3[nH]c4ccccc4c3C[C@@H]2C1=O (stereo in doubt; 12a)
Choose between I and II : whose measured EC50 value is numerically larger? Your answer should be the label of the entry you select.
I
(I: 500 nM, II: 150 nM)

====

- Species on record: Rattus norvegicus
- Assay Method Text: Effective concentration against rat aortic smooth muscle cell
- Format: functional
- Study Conditions: Rattus norvegicus
pEC50: −log10 of the molar value.
Readout Kind: pEC50

Check out these entries, answers already filled in.
- COc1ccc(C2c3[nH]c4ccccc4c3C[C@@H]3C(=O)N(C)C(=O)N23)cc1 (stereo partly specified): 6.00
- O=C1[C@H]2Cc3c([nH]c4ccccc34)C(c3ccc4c(c3)OCO4)N2C(=O)N1Cc1ccccc1 (stereo partly specified): 5.52
- COc1ccc([C@@H]2c3[nH]c4ccccc4c3C[C@@H]3C(=O)N(CC4CC4)CC(=O)N23)cc1: 6.30
- CCCCN1CC(=O)N2[C@H](c3ccc(OC)cc3)c3[nH]c4ccccc4c3C[C@@H]2C1=O: 5.82
- COc1ccc([C@@H]2c3[nH]c4ccccc4c3C[C@@H]3C(=O)N(C4CCCC4)CC(=O)N23)cc1: 6.70
- Cc1ccc([C@@H]2c3[nH]c4ccccc4c3C[C@@H]3C(=O)N(CC4CC4)CC(=O)N23)cc1: 6.22

[a] CCN1CC(=O)N2[C@H](c3ccc(OC)cc3)c3[nH]c4ccccc4c3C[C@@H]2C1=O
[b] CCCCN1CC(=O)N2[C@H](c3ccc4c(c3)OCO4)c3[nH]c4ccccc4c3C[C@@H]2C1=O (stereo in doubt; 13)
[c] CCCCN1CC(=O)N2C(c3ccc4c(c3)OCO4)c3[nH]c4ccccc4c3C[C@@H]2C1=O (single isomer, unassigned)
[d] COc1ccc([C@@H]2c3[nH]c4ccccc4c3C[C@@H]3C(=O)N(C)CC(=O)N23)cc1
Hey, can you sort those compounds up there by pEC50, smallest first? I would appreciate it if you listed the labels in the requested order.
c, b, a, d

====

- Target Entity: cGMP-specific 3',5'-cyclic phosphodiesterase (Bos taurus, UniProt Q28156)
Readout Kind: IC50 (nM)

Check out these entries, answers already filled in.
* CC(C)N1CC(=O)N2[C@H](c3ccc4c(c3)OCO4)c3[nH]c4ccccc4c3C[C@@H]2C1=O (stereo in doubt) | 6
* Cc1ccc([C@@H]2c3[nH]c4ccccc4c3C[C@@H]3C(=O)N(CC4CC4)CC(=O)N23)cc1 | 23
* CCCCN1CC(=O)N2[C@H](c3ccc4c(c3)OCO4)c3[nH]c4ccccc4c3C[C@@H]2C1=O (stereo in doubt; 13) | 3

[I] COc1ccc([C@@H]2c3[nH]c4ccccc4c3C[C@@H]3C(=O)N(CC4CC4)CC(=O)N23)cc1
[II] CCCCN1CC(=O)N2C(c3ccc(C)cc3)c3[nH]c4ccccc4c3C[C@@H]2C1=O (stereo partly specified)
Please let me know which one, I or II , has a lower measured IC50 value. Your answer should be the label of the entry you select.
I
(I: 6 nM, II: 26 nM)
